Origin of measurements: patent US12077576

Biological target: T1, Clostridium difficile toxin B (TcdB) (Clostridium difficile, UniProt P18177 2-2366)
T1 construct: also called rTcdB; TedB
T1 sequence (P18177 2-2366): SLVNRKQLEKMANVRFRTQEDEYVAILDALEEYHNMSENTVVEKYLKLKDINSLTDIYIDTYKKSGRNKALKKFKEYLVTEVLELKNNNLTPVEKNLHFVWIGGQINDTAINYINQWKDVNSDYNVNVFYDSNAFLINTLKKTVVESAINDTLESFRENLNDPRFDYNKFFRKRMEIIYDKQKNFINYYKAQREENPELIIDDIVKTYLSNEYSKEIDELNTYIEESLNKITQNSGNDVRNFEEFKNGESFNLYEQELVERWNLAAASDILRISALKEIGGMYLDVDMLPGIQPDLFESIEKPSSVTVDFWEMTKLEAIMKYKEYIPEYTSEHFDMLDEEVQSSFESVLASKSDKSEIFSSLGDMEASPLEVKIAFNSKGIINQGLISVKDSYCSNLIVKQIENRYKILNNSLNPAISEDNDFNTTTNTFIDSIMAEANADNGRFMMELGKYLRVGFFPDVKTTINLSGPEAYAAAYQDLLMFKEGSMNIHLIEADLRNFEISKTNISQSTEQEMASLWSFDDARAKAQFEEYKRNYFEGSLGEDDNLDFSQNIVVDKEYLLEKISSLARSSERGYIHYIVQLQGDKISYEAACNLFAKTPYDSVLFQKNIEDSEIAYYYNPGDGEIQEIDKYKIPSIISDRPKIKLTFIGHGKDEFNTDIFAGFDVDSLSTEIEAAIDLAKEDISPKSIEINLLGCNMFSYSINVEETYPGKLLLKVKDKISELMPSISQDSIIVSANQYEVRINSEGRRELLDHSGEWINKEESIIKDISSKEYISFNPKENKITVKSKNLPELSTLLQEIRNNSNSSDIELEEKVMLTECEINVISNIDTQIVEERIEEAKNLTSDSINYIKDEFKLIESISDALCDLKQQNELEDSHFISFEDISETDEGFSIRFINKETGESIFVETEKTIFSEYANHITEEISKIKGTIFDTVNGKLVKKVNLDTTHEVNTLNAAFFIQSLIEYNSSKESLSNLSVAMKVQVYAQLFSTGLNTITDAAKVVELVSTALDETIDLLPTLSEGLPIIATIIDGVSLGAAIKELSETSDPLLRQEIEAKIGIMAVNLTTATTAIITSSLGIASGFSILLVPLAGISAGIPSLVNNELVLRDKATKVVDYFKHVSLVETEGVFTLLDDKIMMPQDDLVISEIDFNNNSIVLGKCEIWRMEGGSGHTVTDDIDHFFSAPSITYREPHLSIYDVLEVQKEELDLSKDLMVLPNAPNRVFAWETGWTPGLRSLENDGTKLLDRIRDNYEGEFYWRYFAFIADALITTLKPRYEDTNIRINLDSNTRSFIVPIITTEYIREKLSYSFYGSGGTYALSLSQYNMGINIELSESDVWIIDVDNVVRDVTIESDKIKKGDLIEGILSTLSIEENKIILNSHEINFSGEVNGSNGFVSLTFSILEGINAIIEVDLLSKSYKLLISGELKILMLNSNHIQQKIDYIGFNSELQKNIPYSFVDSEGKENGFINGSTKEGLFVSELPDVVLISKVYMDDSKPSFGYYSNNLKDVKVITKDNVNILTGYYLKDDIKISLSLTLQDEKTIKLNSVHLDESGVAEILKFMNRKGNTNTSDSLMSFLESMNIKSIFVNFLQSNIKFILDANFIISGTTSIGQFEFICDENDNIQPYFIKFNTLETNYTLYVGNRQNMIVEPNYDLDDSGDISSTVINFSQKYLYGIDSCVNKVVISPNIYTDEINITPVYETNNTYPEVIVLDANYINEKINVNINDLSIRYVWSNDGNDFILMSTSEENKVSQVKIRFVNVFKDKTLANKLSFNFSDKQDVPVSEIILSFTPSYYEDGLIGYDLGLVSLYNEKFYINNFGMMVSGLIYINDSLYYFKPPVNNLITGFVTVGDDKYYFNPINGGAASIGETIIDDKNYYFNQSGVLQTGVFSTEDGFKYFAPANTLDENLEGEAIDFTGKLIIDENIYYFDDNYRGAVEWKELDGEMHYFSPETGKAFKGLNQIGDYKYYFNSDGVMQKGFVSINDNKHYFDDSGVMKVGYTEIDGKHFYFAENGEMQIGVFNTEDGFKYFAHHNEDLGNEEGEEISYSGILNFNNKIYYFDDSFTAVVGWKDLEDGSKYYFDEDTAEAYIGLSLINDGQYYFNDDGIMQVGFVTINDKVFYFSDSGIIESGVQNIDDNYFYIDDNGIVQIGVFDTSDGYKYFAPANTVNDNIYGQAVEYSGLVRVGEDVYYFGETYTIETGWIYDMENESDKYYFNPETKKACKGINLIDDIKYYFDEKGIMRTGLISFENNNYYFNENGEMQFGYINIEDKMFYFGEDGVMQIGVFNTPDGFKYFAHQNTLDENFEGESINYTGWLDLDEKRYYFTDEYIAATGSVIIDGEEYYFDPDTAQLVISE
Test: ELISA, VHH dilution series on plate-coated rTcdB, anti-E-tag-HRP detection
readout label: pEC50
To interpret pEC50, take it as minus log10 of a concentration measured in moles per litre.

Please look up its pEC50: JZS-E6 (XAF-11) anti-TcdB VHH (VHH) VHH: QVQLAETGGGLVQAGGSLRLSCAASGRLSERIFMISTMAWYRQVPGKQRELVAEISRLGRANYSDSVTDRFIISRDNTKNTVDLQMNSLKPEDTAVYYCNLKPFVDNYRGPGTQVTVSS
9.10
